For each entry below, report its pKd value.
# Target: Inadl_8, Q8NI35
# Sequence (Q8NI35 1425-1530): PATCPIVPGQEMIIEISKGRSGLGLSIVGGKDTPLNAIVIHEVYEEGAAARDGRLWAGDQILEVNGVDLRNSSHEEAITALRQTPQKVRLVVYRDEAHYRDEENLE
# Assay details: holdup assay
# Set-up: key: below the threshold = too weak to quantify, mostly under pKd 3.1 to 4
# Test parameters: plain residues with an end cap or a label only (N-terminal biotin on a linker: ado-ado)
Give bare numbers.

Worked cases, answers included:
>  <Binder>
DGVNEKVSCV [HTR2A, P28223]

>  <pKd>
4.81

$$$$
>  <Binder>
KRPEMTSSSV [MUC3B, MUC3A, Q02505;Q9H195]

>  <pKd>
4.63

$$$$
>  <Binder>
MQHQRTHTRV [ZSCAN30, Q86W11]

>  <pKd>
4.16

$$$$
>  <Binder>
KKMLQRRTLL [OR8G1, Q15617]

>  <pKd>
3.55

$$$$
>  <Binder>
TRKRSGEAAV [PFKM, P08237]

>  <pKd>
3.57

$$$$

For each of the items listed, what is its pKd?
1. TNSRHGETTV [FZD2, Q14332]
2. GIKKITSTAL [RPS6KA3, P51812]
3. NTANRRTTPV [CACNG2, Q9Y698]

Response:
1. 3.57
2. 3.62
3. 4.23

Prompt: Which value of pKd has been reported for NTLNRKTTPV [CACNG8, Q8WXS5] in the records?
Response: 4.2
